- test.system: recombinant eIF4E (Homo sapiens (Human))
- test: Fluorescence polarization competition assay for eIF4E binding potency
- details: fluorescence polarization competition, 75 nM recombinant eIF4E, 20 nM EDA-m7GDP-ATTO-550; IC50 class; read-out: elF4E FP
- Method: Compounds were screened for eIF4E binding potency using a fluorescence polarization competition assay. All binding reactions were performed in fluorescence polarization buffer (FPB) containing 20 mM Tris pH 7.5, 100 mM NaCl, 1 mM DTT, and 0.02% Tween-20. Final binding reactions contained 75 nM recombinant eIF4E (Beryllium, custom order), 20 nM EDA-m^7GDP-ATTO-550 (Jena Bioscience, NU-827-550) and varying concentrations of the inhibitory compound of interest. […]
assay.metric: IC50

# annotated cases, reported IC50 shown
INSERT INTO measurements (entry_smiles, assay_metric, readout_value) VALUES
  ('COc1cc2nc(C)n(CCOc3ccc(Cl)cc3-c3cc(C)nc4c(C(=O)O)c(C)sc34)c(=O)c2c(C#N)c1N1CCN(C)CC1', 'IC50', '< 50 nM'),
  ('Cc1nc2cc(C(F)(F)F)cc(C#N)c2c(=O)n1CCOc1ccc(Cl)cc1-c1csc2c(C(=O)O)cccc12', 'IC50', '50 to 1000 nM'),
  ('Cc1c(C(=O)O)ccnc1-c1cc(Cl)ccc1OCCn1cnc2cnc(C#N)cc2c1=O', 'IC50', '> 1000 nM'),
  ('Cc1cc(-c2cc(Cl)ccc2OCCn2c(C)nc3cc(-c4cccnc4)cc(C#N)c3c2=O)c2scc(C(=O)O)c2n1', 'IC50', '< 50 nM');

Consider the additional compound presented here.
Problem: Return reported IC50. Input compound: Cc1cc(-c2cc(Cl)ccc2OCCn2c(C)nc3cnc(N4CC(O)C4)c(C#N)c3c2=O)c2scc(C(=O)O)c2n1
Solution: < 50 nM

###

- test.system: recombinant eIF4E (Homo sapiens (Human), UniProt P06730)
- Sequence (P06730 whole entry): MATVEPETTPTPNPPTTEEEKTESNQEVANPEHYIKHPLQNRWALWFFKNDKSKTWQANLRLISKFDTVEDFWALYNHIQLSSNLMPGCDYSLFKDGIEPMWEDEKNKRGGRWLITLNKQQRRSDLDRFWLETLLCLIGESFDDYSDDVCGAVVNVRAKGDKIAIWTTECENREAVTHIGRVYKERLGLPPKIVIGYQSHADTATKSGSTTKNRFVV
- test: Fluorescence polarization competition assay for eIF4E binding potency
- details: fluorescence polarization competition, 75 nM recombinant eIF4E, 20 nM EDA-m7GDP-ATTO-550; IC50 class; read-out: elF4E FP
- Protocol: Compounds were screened for eIF4E binding potency using a fluorescence polarization competition assay. All binding reactions were performed in fluorescence polarization buffer (FPB) containing 20 mM Tris pH 7.5, 100 mM NaCl, 1 mM DTT, and 0.02% Tween-20. Final binding reactions contained 75 nM recombinant eIF4E (Beryllium, custom order), 20 nM EDA-m^7GDP-ATTO-550 (Jena Bioscience, NU-827-550) and varying concentrations of the inhibitory compound of interest. […]
pIC50: −log10 of the molar value.
Each entry below carries its reported pIC50.

INSERT INTO results (entry_smiles, readout_value) VALUES
  ('Cc1cc(-c2cc(Cl)ccc2OCCn2c(C)nc3cc(C(F)(F)F)c(C4=CCN(C)CC4)c(C#N)c3c2=O)c2scc(C(=O)O)c2n1', '> 7.30');

Problem: Return reported pIC50 for target or system recombinant eIF4E (Homo sapiens (Human), UniProt P06730), item O=C(O)c1cccc(-c2cc(Cl)ccc2OCCn2cnc3cnc(Sc4ccccc4)cc3c2=O)c1 .
Solution: 6.00 to 7.30

Problem: Return reported pIC50 for target or system recombinant eIF4E (Homo sapiens (Human), UniProt P06730), item Cc1nc2cnc(C3CC3)c(C#N)c2c(=O)n1CCOc1ccc(Cl)cc1Cc1cc(C(=O)O)cs1 .
Solution: 6.00 to 7.30

Problem: Return reported pIC50 for target or system recombinant eIF4E (Homo sapiens (Human), UniProt P06730), item CC(=O)NS(=O)(=O)c1csc2c(-c3cc(Cl)ccc3OCCn3c(C)nc4c(F)cc(C(F)F)c(C#N)c4c3=O)cc(C)nc12 .
Solution: > 7.30
